# credit: patent US12030904B2

# protocol_summary: MT4 cytotoxicity (CC50)
# assay_context: human, MT4 cells, MT4 CC50, Table 2a
Decision: CC50 beneath 3 µM gives Condition met; CC50 meeting or exceeding 3 µM gives Condition not met.

1) CCCCCCCCCCCCCCCCCCOC[C@H](COP(=O)(O)OC[C@H]1O[C@@](C#N)(c2ccc3c(N)ncnn23)[C@H](O)[C@@H]1O)OCc1ccc(C#N)c(OC)c1
Condition met
2) CCCCCCCCCCCCCCCCCCOC[C@H](COP(=O)(O)OC[C@H]1O[C@@](C#N)(c2ccc3c(N)ncnn23)[C@H](O)[C@@H]1O)OCc1ccc(Cl)cc1Cl
Condition not met
3) CCCCCCCCCCCCCCCCOCCCCOP(=O)(O)OC[C@H]1O[C@@](C#N)(c2ccc3c(N)ncnn23)[C@H](O)[C@@H]1O
Condition not met

// query hey, is CC50 for CCCCCCCCCCCCCCCCCCOC[C@H](COP(=O)(O)OC[C@H]1O[C@@](C#N)(c2ccc3c(N)ncnn23)[C@H](O)[C@@H]1O)OCc1cccc(C(F)F)c1 lower than 3 µM or not?
// result Condition met

// query hey, is CC50 for CCCCCCCCCCCCCCCCCCCOC[C@H](COP(=O)(O)OC[C@H]1O[C@@](C#N)(c2ccc3c(N)ncnn23)[C@H](O)[C@@H]1O)OCc1cc(F)cc(C#N)c1 lower than 3 µM or not?
// result Condition met

----------
# protocol_summary: MT4 cytotoxicity (CC50)
# assay_context: human, MT4 cells, MT4 CC50, Table 2a
We begin with a simple list: items and their reported CC50.
Give your result in µM as a bare value.

1) CCCCCCCCCCCCCCCCCCOC[C@H](COP(=O)(O)OC[C@H]1O[C@@](C#N)(c2ccc3c(N)ncnn23)[C@H](O)[C@@H]1O)OCc1ccc(C(F)F)cc1
8.85
2) CCCCCCCCCCCCCCCCCCOC[C@@H](CCc1ccccc1)COP(=O)(O)OC[C@H]1O[C@@](C#N)(c2ccc3c(N)ncnn23)[C@H](O)[C@@H]1O
26.4

The measured CC50 associated with CCCCCCCCCCCCCCCCCCOC[C@H](COP(=O)(O)OC[C@H]1O[C@@](C#N)(c2ccc3c(N)ncnn23)[C@H](O)[C@@H]1O)OCc1ccc(Cl)c(Cl)c1 reads 1.61

----------
# System: Recombinant Respiratory Syncytial virus strain A2 containing the firefly luciferase reporter (RSV-Fluc)
# protocol_summary: microbe, parasite or virus in culture
# Assay type: cell-based
# assay_context: read-out: RSV-Fluc EC50 (NHBE); NHBE cells, three days; Table 2
reported_property: EC50 (nM)
Give your result in nM as a bare value.

The measured EC50 associated with CCCCCCCCCCCCCCCCCCOC[C@H](COP(=O)(O)OC[C@H]1O[C@@](C#N)(c2ccc3c(N)ncnn23)[C@H](O)[C@@H]1O)OC(C)c1ccccc1 (single isomer, unassigned) reads 70

----------
# protocol_summary: MT4 cytotoxicity (CC50)
# assay_context: human, MT4 cells, MT4 CC50, Table 4
reported_property: log10 of CC50 (log10 of the value in nM)
Kindly note that the scale is log10 and the underlying CC50 is in nM.

Some entries whose results are on file:
1) CCCCCCCCCCCCCCCCCCOC[C@H](COP(=O)(O)OC[C@H]1O[C@@](C#N)(c2ccc3c(N)ncnn23)[C@H](O)[C@@H]1O)Oc1ccccc1
3.49
2) CCCCCCCCCCCCCCCCCCOC[C@H](COP(=O)(O)OC[C@H]1O[C@@](C#N)(c2ccc3c(N)ncnn23)[C@H](O)[C@@H]1O)Oc1ccc(C#N)nc1
2.12
3) CCCCCCCCCCCCCCCCCCOC[C@H](COP(=O)(O)OC[C@H]1O[C@@](C#N)(c2ccc3c(N)ncnn23)[C@H](O)[C@@H]1O)OCc1ccc(F)c(C#N)c1
3.95
4) CCCCCCCCCCCCCCCCCCOC[C@@H](COP(=O)(O)OC[C@H]1O[C@@](C#N)(c2ccc3c(N)ncnn23)[C@H](O)[C@@H]1O)OCc1cc(F)cc(C#N)c1
3.24

The measured log10 of CC50 associated with CCCCCCCCCCCCCCCCCCOC[C@H](COP(=O)(O)OC[C@H]1O[C@@](C#N)(c2ccc3c(N)ncnn23)[C@H](O)[C@@H]1O)Oc1cnc(C#N)c(OC)c1 reads 2.21

----------
We begin with a simple list: items and their reported log10(CC50).
# protocol_summary: MT4 cytotoxicity (CC50)
# assay_context: human, MT4 cells, MT4 CC50, Table 1a
Kindly note that the scale is log10 and the underlying CC50 is in µM.

Some entries whose results are on file:
1. CCCCCCCCCCCCCCCCCCOC[C@H](COP(=O)(O)OC[C@H]1O[C@@](C#N)(c2ccc3c(N)ncnn23)[C@H](O)[C@@H]1O)OCc1ccc2ccccc2c1
0.62
2. CCCCCCCCCCCCCCCCCCOC[C@H](COP(=O)(O)OC[C@H]1O[C@@](C#N)(c2ccc3c(N)ncnn23)[C@H](O)[C@@H]1O)OCc1cc(F)cc(F)c1
0.52
3. CCCCCCCCCCCCCCCCCCOC[C@H](COP(=O)(O)OC[C@H]1O[C@@](C#N)(c2ccc3c(N)ncnn23)[C@H](O)[C@@H]1O)OCc1ccc(F)c(F)c1
0.86
4. CCCCCCCCCCCCCCCCOC[C@H](COP(=O)(O)OC[C@H]1O[C@@](C#N)(c2ccc3c(N)ncnn23)[C@H](O)[C@@H]1O)OCc1ccccc1
0.80
5. CCCCCCCCCCCCCCCCCCOC[C@H](COP(=O)(O)OC[C@H]1O[C@@](C#N)(c2ccc3c(N)ncnn23)[C@H](O)[C@@H]1OC(=O)C(C)C)OCc1ccccc1
1.70
6. CCCCCCCCCCCCCCCCCCOC[C@H](COP(=O)(O)OC[C@H]1O[C@@](C#N)(c2ccc3c(N)ncnn23)[C@H](O)[C@@H]1O)OCc1ccc(-c2ccccc2)cc1
1.17
7. CCCCCCCCCCCCCCCCCCOC[C@H](COP(=O)(O)OC[C@H]1O[C@@](C#N)(c2ccc3c(N)ncnn23)[C@H](OC(=O)C(C)C)[C@@H]1OC(=O)C(C)C)OCc1ccccc1
1.52
8. CCCCCCCCCCCCCCCCCCCOC[C@H](COP(=O)(O)OC[C@H]1O[C@@](C#N)(c2ccc3c(N)ncnn23)[C@H](O)[C@@H]1O)OCc1ccccc1
1.14
9. CCCCCCCCCCCCCCCCCCOC[C@H](COP(=O)(O)OC[C@H]1O[C@@](C#N)(c2ccc3c(N)ncnn23)[C@H](O)[C@@H]1O)OCc1ccccc1
0.60
10. CCCCCCCCCCCCCCCCCCOC[C@H](COP(=O)(O)OC[C@H]1O[C@@](C#N)(c2ccc3c(N)ncnn23)[C@H](O)[C@@H]1O)OCc1ccc(C#N)cc1
0.16

The measured log10(CC50) associated with CCCCCCCCCCCCCCCCCCOC[C@H](COP(=O)(O)OC[C@H]1O[C@@](C#N)(c2ccc3c(N)ncnn23)[C@H](O)[C@@H]1O)OCc1cc(F)cc(C#N)c1 reads -0.36

The measured log10(CC50) associated with CCCCCCCCCCCCCCCCCCOC[C@H](COP(=O)(O)OC[C@H]1O[C@@](C#N)(c2ccc3c(N)ncnn23)[C@H](O)[C@@H]1O)OCc1ccc(F)c(Cl)c1 reads 0.32

The measured log10(CC50) associated with CCCCCCCCCCCCCCCCCCOC[C@H](COP(=O)(O)OC[C@H]1O[C@@](C#N)(c2ccc3c(N)ncnn23)[C@H](O)[C@@H]1O)OCc1ccc(C(F)(F)F)cc1 reads 1.16

----------
# protocol_summary: MT4 cytotoxicity (CC50)
# assay_context: human, MT4 cells, MT4 CC50, Table 2a
Decision: CC50 beneath 30 µM gives 1.0; CC50 meeting or exceeding 30 µM gives 0.0.

1) CCCCCCCCCCCCCCCCCCOCC(COc1ccccc1)COP(=O)(O)OC[C@H]1O[C@@](C#N)(c2ccc3c(N)ncnn23)[C@H](O)[C@@H]1O (stereo partly drawn) [Example 29]
1.0
2) CCCCCCCCCCCCCCCCCCOC[C@H](COP(=O)(O)OC[C@H]1O[C@@](C#N)(c2ccc3c(N)ncnn23)[C@H](O)[C@@H]1O)OCC(C)C [Example 46]
0.0
3) CCCCCCCCCCOCCCOP(=O)(O)OC[C@H]1O[C@@](C#N)(c2ccc3c(N)ncnn23)[C@H](O)[C@@H]1O [Example 56]
0.0

// query hey, is CC50 for CCCCCCCCCCCCCCCCCCOC[C@H](COP(=O)(O)OC[C@H]1O[C@@](C#N)(c2ccc3c(N)ncnn23)[C@H](O)[C@@H]1O)OCc1ccc(C#N)cc1F [Example 53] lower than 30 µM or not?
// result 1.0

// query hey, is CC50 for CCCCCCCCCCCCCCCCCCOC[C@H](COP(=O)(O)OC[C@H]1O[C@@](C#N)(c2ccc3c(N)ncnn23)[C@H](O)[C@@H]1O)OCc1ccc(Cl)cc1 [Example 41] lower than 30 µM or not?
// result 1.0

// query hey, is CC50 for CCCCCCCCCCCCCCCCCCOC[C@H](COP(=O)(O)OC[C@H]1O[C@@](C#N)(c2ccc3c(N)ncnn23)[C@H](O)[C@@H]1O)OCc1c(F)cccc1F [Example 43] lower than 30 µM or not?
// result 1.0

// query hey, is CC50 for CCCCCCCCCCCCCCCCOCCCOP(=O)(O)OC[C@H]1O[C@@](C#N)(c2ccc3c(N)ncnn23)[C@H](O)[C@@H]1O [Example 60] lower than 30 µM or not?
// result 1.0

// query hey, is CC50 for CCCCCCCCCCCCCCCCCCOC[C@H](COP(=O)(O)OC[C@H]1O[C@@](C#N)(c2ccc3c(N)ncnn23)[C@H](O)[C@@H]1O)Oc1ccc(C#N)c(OC(C)C)c1 [Example 72] lower than 30 µM or not?
// result 1.0

// query hey, is CC50 for CCCCCCCCCCCCCCOCCCOP(=O)(O)OC[C@H]1O[C@@](C#N)(c2ccc3c(N)ncnn23)[C@H](O)[C@@H]1O [Example 58] lower than 30 µM or not?
// result 1.0
